test: Caco-2 cell monolayer permeability; assay type: in vitro ADME; settings: human, Caco-2, pH 7.4

{"columns": ["compound-structure-string", "units-label", "Papp A→B at 10 µM"],
 "data": [
  ["Cl.Cl.NCCCn1c2c(c3ccc(N)cc3c1=O)C(=O)c1ccccc1-2", "×10⁻⁶ cm/s", 5.52]
]}

---

test: Caco-2 cell monolayer permeability; format: in vitro ADME; settings: human, Caco-2, pH 7.4
measurement-type: Papp B→A at 5 µM (×10⁻⁶ cm/s)

{"columns": ["compound-structure-string", "measurement-type", "endpoint-result"],
 "data": [
  ["Cl.Cl.NCCCn1c2c(c3ccc(N)cc3c1=O)C(=O)c1ccccc1-2", "Papp B→A at 5 µM", 3.95]
]}
